Reference source: the PolyMetriX glass transition set

Examples of compounds with documented glass transition temperature follow.
measuredParameter: glass transition temperature (°C)

compound	measuredParameter	unitsText	testValue
*c1ccc(-c2ccc(-c3ccc(-c4ccc(N(*)c5ccc(C)cc5)cc4)c4c(C)ccc(C)c34)c3c(C)ccc(C)c23)cc1 (repeat unit)	glass transition temperature	°C	148.00
*c1ccc(-c2ccc([Si](C)(C)[Si](*)(C)C)s2)s1 (repeat unit)	glass transition temperature	°C	45.00
*c1ccc(Oc2ccc(N3C(=O)c4ccc(Oc5ccc6cc(Oc7ccc8c(c7)C(=O)N(*)C8=O)ccc6c5)cc4C3=O)cc2)cc1 (repeat unit)	glass transition temperature	°C	249.00
*C(=O)Nc1ccc(Oc2ccc(NC(=O)c3ccc4c(c3)C(=O)N(c3ccc(Oc5ccc(N6C(=O)c7ccc(*)cc7C6=O)cc5-c5ccccc5)c(-c5ccccc5)c3)C4=O)cc2)cc1 (repeat unit)	glass transition temperature	°C	345.00
*c1ccc(-c2ccc(-c3ccc4nc(Oc5cc(-c6ccccc6)c6cc(*)ccc6n5)cc(-c5ccccc5)c4c3)cc2)cc1 (repeat unit)	glass transition temperature	°C	308.00
*N=P(N=P(N=S(*)(=O)NCC=C)(NCC=C)NCC=C)(NCC=C)NCC=C (repeat unit)	glass transition temperature	°C	-18.00
*Nc1c(-c2ccccc2)cc(-c2ccc(-c3cc(-c4ccccc4)c(NC(=O)c4ccc(C(*)=O)cc4)c(-c4ccccc4)c3)cc2)cc1-c1ccccc1 (repeat unit)	glass transition temperature	°C	135.00
*CCCCCCCCCN1C(=O)c2ccc(C(c3ccc4c(c3)C(=O)N(*)C4=O)(C(F)(F)F)C(F)(F)F)cc2C1=O (repeat unit)	glass transition temperature	°C	135.00
*/C=C/c1ccc(-c2nnc(-c3ccc(/C=C/c4ccc5c(c4)c4cc(*)ccc4n5CCCCCCCC)cc3)n2-c2ccccc2)cc1 (repeat unit)	glass transition temperature	°C	147.00
*c1ccc(C(c2ccc(-c3nc4ccc(-c5ccc6nc(*)[nH]c6c5)cc4[nH]3)cc2)(C(F)(F)F)C(F)(F)F)cc1 (repeat unit)	glass transition temperature	°C	269.00
*Oc1ccc(CNC(=O)c2ccc(C(=O)NCc3ccc(OC4COC5C(*)COC45)cc3)cc2)cc1 (repeat unit)	glass transition temperature	°C	122.00
*CCCCCCOc1ccc(-c2cc(-c3ccccc3)c(-c3ccc(NC(=O)c4ccc(C(=O)Nc5ccc(-c6c(-c7ccccc7)cc(-c7ccc(O*)cc7)cc6-c6ccccc6)cc5)cc4)cc3)c(-c3ccccc3)c2)cc1 (repeat unit)	glass transition temperature	°C	127.00
*CC(*)(C)C(=O)OCCOCCOCC1(C)COCCOCCOCCOC1 (repeat unit)	glass transition temperature	°C	10.00
*CC(*)(C)C(N)=O (repeat unit)	glass transition temperature	°C	88.70

###

Examples of compounds with documented glass transition temperature follow.
measuredParameter: glass transition temperature (°C)

compound	measuredParameter	testValue
*CC(COc1ccc(C(C)(C)c2ccc(O*)cc2)cc1)OC(=O)/C=C/c1ccco1 (repeat unit)	glass transition temperature	107.20
*Oc1ccc(S(=O)(=O)c2ccc(OC(=O)OC3C(C)(C)C(OC(*)=O)C3(C)C)cc2)cc1 (repeat unit)	glass transition temperature	162.00
*c1ccc(Oc2ccc(S(=O)(=O)c3ccc(Oc4ccc(-c5c6c(c(*)c7ccccc57)C(=O)N(c5ccccc5)C6=O)cc4)cc3)cc2)cc1 (repeat unit)	glass transition temperature	310.00
*c1ccc(C(c2ccccc2)c2ccc(N(*)c3ccc(C)cc3)cc2)cc1 (repeat unit)	glass transition temperature	199.00
*C(=O)Oc1ccc(C(=O)Oc2cccc(OC(=O)c3ccc(OC(=O)c4ccc(*)nc4)cc3)c2)cc1 (repeat unit)	glass transition temperature	110.00
*CC(*)(C)C(=O)Oc1ccc(C(=O)Oc2ccccc2)cc1 (repeat unit)	glass transition temperature	99.00
*c1ccc2c(c1)C(=O)N(c1ccc(C3(c4ccc(N5C(=O)c6ccc(C(*)(C(F)(F)F)C(F)(F)F)cc6C5=O)cc4)c4ccccc4-c4ccccc43)cc1)C2=O (repeat unit)	glass transition temperature	370.00
*c1ccc(Oc2ccc(Oc3ccc(-c4cnc5cc(-c6ccc7nc(*)cnc7c6)ccc5n4)cc3)cc2)cc1 (repeat unit)	glass transition temperature	195.00
*CCc1ccc(NC(=O)c2cccc(C(=O)Nc3ccc(CCOC(=O)c4cccc(C(=O)O*)c4)cc3)c2)cc1 (repeat unit)	glass transition temperature	142.00
*Oc1ccc(Oc2ccc(C(=O)c3ccc(*)cc3)cc2)cc1-c1ccccc1 (repeat unit)	glass transition temperature	157.00
*c1ccc(-c2cc(CCCCCCBr)c(*)s2)s1 (repeat unit)	glass transition temperature	51.00
*/C=C/CCCCCCCCCC(CCCCCCCCC*)COCCOCCOCCOCCOCc1ccc2ccc3cccc4ccc1c2c34 (repeat unit)	glass transition temperature	-36.00
*Sc1cc(C)c(*)cc1C (repeat unit)	glass transition temperature	298.00
*c1ccc2c(c1)C(=O)N(c1ccc(NC(=O)C(F)(F)C(F)(F)C(F)(F)C(F)(F)C(F)(F)C(F)(F)C(=O)Nc3ccc(N4C(=O)c5ccc(C(*)(C(F)(F)F)C(F)(F)F)cc5C4=O)cc3)cc1)C2=O (repeat unit)	glass transition temperature	265.00
*CCOC(=O)Nc1ccc(Cc2ccc(NC(=O)O*)cc2)cc1 (repeat unit)	glass transition temperature	139.00

###

Examples of molecules with documented glass transition temperature follow.

molecule	glass transition temperature
*CC(OO*)c1ccc(C(C)(C)C)cc1 (repeat unit)	19.90 °C
*OC(CC)C(*)=O (repeat unit)	15.00 °C
*c1nc(C(F)(F)C(F)(F)C(F)(F)F)nc(C(F)(F)C(F)(F)C(F)(F)C(F)(F)C(F)(F)C(*)(F)F)n1 (repeat unit)	-5.00 °C
*CCCCCCCCCCc1ccc(-c2c(-c3ccccc3)cc(-c3ccc(-c4cc(-c5ccccc5)c(-c5ccc(*)cc5)c(-c5ccccc5)c4-c4ccccc4)cc3)c(-c3ccccc3)c2-c2ccccc2)cc1 (repeat unit)	235.00 °C
*CC(*)(F)C(=O)OCC(F)(F)C(F)F (repeat unit)	90.50 °C

###

measuredParameter: glass transition temperature

molecule	testValue
*c1ccc(Oc2c(C)cc(-c3cc(C)c(Oc4ccc(N5C(=O)c6ccc(Oc7ccccc7Oc7ccc8c(c7)C(=O)N(*)C8=O)cc6C5=O)cc4C(F)(F)F)c(C)c3)cc2C)c(C(F)(F)F)c1 (repeat unit)	270.00 °C
*C(=O)c1ccc2c(c1)C(=O)N(c1ccc(C(c3ccc(N4C(=O)c5ccc(*)cc5C4=O)cc3)(C(F)(F)F)C(F)(F)F)cc1)C2=O (repeat unit)	308.03 °C
*Sc1cccc(Sc2ccc(Sc3ccc(*)cc3)cc2)c1 (repeat unit)	69.00 °C
*c1ccc(Oc2ccccc2Oc2ccc(N3C(=O)c4ccc(Oc5cc6ccccc6cc5Oc5ccc6c(c5)C(=O)N(*)C6=O)cc4C3=O)cc2)cc1 (repeat unit)	204.00 °C
*Nc1ccc(C(=O)Nc2ccc(Cc3ccc(NC(=O)c4ccc(NC(=O)c5ccc([Si](C)(C)c6ccc(C(*)=O)cc6)cc5)cc4)cc3)cc2)cc1 (repeat unit)	300.00 °C
*C(=O)c1ccc2nc(-c3ccccc3)c(-c3ccc(-c4nc5cc(*)ccc5nc4-c4ccccc4)cc3)nc2c1 (repeat unit)	325.00 °C
*Nc1ccc(NC(=O)c2cc(-c3ccc(C(=O)O)c(C(*)=O)c3)ccc2C(=O)O)cc1 (repeat unit)	248.40 °C
*Oc1ccc(S(=O)(=O)c2ccc(Oc3ccc(C(C)(C)c4ccc(*)cc4)cc3)cc2)cc1 (repeat unit)	186.00 °C
*CCCCCOCO* (repeat unit)	-80.00 °C
*CCCOC(=O)C1CCC(C(=O)O*)CC1 (repeat unit)	-6.00 °C
*CC(C#N)C(CCC(C)(O)C=C)C(*)(C)C (repeat unit)	50.00 °C
*c1ccc(-c2cnc3ccc(S(=O)(=O)c4ccc5ncc(*)nc5c4)cc3n2)cc1 (repeat unit)	342.00 °C
*O[Si](C)(C)CC(C)(C)COC(=O)c1cccc(C(=O)OCC(C)(C)C[Si](*)(C)C)c1 (repeat unit)	-52.00 °C
*CCOC(=O)NCCCCCCCCCCNC(=O)O* (repeat unit)	60.80 °C
*CC(*)(C)CCC (repeat unit)	27.00 °C
*OC(=O)c1ccc(C(=O)OC2CC3CC(*)CC(C2)O3)cc1 (repeat unit)	207.00 °C

###

Hi! Just check whether glass transition temperature is below 100 °C. Below gives Condition met, equal or above gives Condition not met.

molecule	discreteLabel
*C(=O)Nc1ccc(S(=O)(=O)c2ccc(NC(=O)c3ccc4c(c3)C(=O)N(c3cc(-c5nc6ccccc6s5)cc(N5C(=O)c6ccc(*)cc6C5=O)c3)C4=O)cc2)cc1 (repeat unit)	Condition not met
*c1ccc(Oc2ccc(-c3nc4cc(Oc5ccc(NC(=O)c6cc(C(=O)Nc7ccc(Oc8ccc9nc(-c%10ccccc%10)c(*)nc9c8)cc7)cc(N7C(=O)c8c(Cl)c(Cl)c(Cl)c(Cl)c8C7=O)c6)cc5)ccc4nc3-c3ccccc3)cc2)cc1 (repeat unit)	Condition not met
*CC(*)c1ccc(COc2ccc(-c3ccc(C#N)cc3)cc2)cc1 (repeat unit)	Condition not met
*Cc1ccc(COP(=O)(/N=N/c2ccc(C(=O)c3ccc(/N=N/P(=O)(O*)OC)cc3)cc2)OC)cc1 (repeat unit)	Condition met
*CCOCCOCCOCCOC(=O)c1ccc(-c2ccc(C(=O)O*)cc2)cc1 (repeat unit)	Condition met
*c1ccc(N2C(=O)c3ccc(C(=O)c4ccc5c(c4)C(=O)N(c4ccc(-c6nc7cc(S(=O)(=O)c8ccc9nc(-c%10ccccc%10)c(*)nc9c8)ccc7nc6-c6ccccc6)cc4)C5=O)cc3C2=O)cc1 (repeat unit)	Condition not met
